Values compiled from a melting point compilation (Tetko et al.; mined from patent text by program, amines drawn as free bases though some values may be those of a salt).

parameter: melting point

>  <compound>
CC(=Cc1ccc(Cl)cc1Cl)c1ccc(Cl)cc1

>  <melting point>
84 to 85 °C

$$$$
>  <compound>
COc1ccc(N2CCN(c3c(C)c(C)c4c(c3C)CC(C)(CN3CCS(=O)(=O)CC3)O4)CC2)cc1 (stereo not given)

>  <melting point>
145 to 164 °C

$$$$
>  <compound>
CS(=O)(=O)CCN1C(=O)CN=C(c2ccccc2)c2cc(Cl)ccc21

>  <melting point>
135 to 156 °C

$$$$
>  <compound>
Cc1nc2c(c3c1[nH]c1ccccc13)C(=O)CC(C(C)C)C2 (stereo not given)

>  <melting point>
248 to 249 °C

$$$$

As a next step, examine the compound that follows.
Briefly, melting point measured for CN(C=CC(=Nc1ccccc1)Oc1ccccc1)c1ccccc1 : 130 to 132 °C

====

Quick reference for melting point among some molecules

Study these solved cases before continuing.
>  <molecule>
NCC(=O)NCCCCNc1cccc2c1C(=O)c1ccccc1C2=O

>  <parameter>
melting point

>  <testResult>
206 °C

$$$$
>  <molecule>
CC(C)(C)OC(=O)c1cc(Br)cc([N+](=O)[O-])c1

>  <parameter>
melting point

>  <testResult>
77 to 78 °C

$$$$
>  <molecule>
Nc1nnc(-c2ccc3ncn(-c4cccc(OC(F)(F)F)c4)c3c2)o1

>  <parameter>
melting point

>  <testResult>
215 to 216 °C

$$$$

melting point recorded for this molecule, CC(=O)OC1CSC(Oc2cccc(C#N)c2)C(OC(C)=O)C1OC(C)=O (stereo not given) , is 148 to 151 °C

Just so you know, measured melting point for COCC(=O)N(c1c(C)ccc(CC(=O)Nc2cc(Cl)cc(Cl)c2)c1C)C(C)C(=O)OC (stereo not given) came out at 126 to 128 °C

====

parameter: melting point

// O=C(Nc1ccnc(Cl)c1)NC1CCCC1 : melting point value = 119 to 121 °C

melting point for O=C(O)/C=C1/c2ccccc2N(C(=O)c2ccc(NC(=O)c3ccccc3-c3ccccc3)cc2)CCC1(F)F is 224 to 226 °C

So for CCCOc1ccccc1-c1nc2nc(NCC(F)(F)F)ncc2c(=O)[nH]1 , the logged melting point turned out to be 214 to 216 °C

Quick note, melting point for Fc1ccc(OCc2ccnc3c(Cl)cccc23)cc1 landed at 144 to 145 °C

compound COc1ccc(C(=O)c2[nH]c3cc(Cl)ccc3c2NC(C)=O)cc1 , melting point observed: 137 to 139 °C

====

parameter: melting point

>  <compound>
CC1(C)C(=NO)C(=NO)C(C)(C)N1C(=O)c1ccccc1

>  <melting point>
235 to 240 °C

$$$$

Looking up CNc1nc(N)nc(-c2ccccc2)c1-c1ccc(=O)n(C(C)C)n1 , I found its melting point recorded as 268 to 270 °C

Looking up CCc1cccc(CC)c1NC(=O)NC1CCC(c2ccccc2)CC1 (stereo not given) , I found its melting point recorded as 247 to 249 °C

Please fill in: melting point reported for CCCCCCCCCCCc1cc2ccc(C(=O)O)cc2[nH]1 = 156 to 158 °C

Quick note, melting point for O=C(N(Cc1ccccc1)Cc1cccs1)C12CC3CC(CC(C3)C1)C2 landed at 130 to 132 °C

====

Parameter: melting point. Scope: all listed entries.

>  <compound>
CCC(C)(C)OC(=O)NC(C)(Cc1c[nH]c2ccccc12)C(=O)NCCCCc1ccccc1 (centres undefined)

>  <melting point>
127 to 130 °C

$$$$
>  <compound>
CN1CCN(c2cc(Cl)c3c(c2)N(Cc2ccccc2)C(=O)N(Cc2cccc(O)c2)S3(=O)=O)CC1

>  <melting point>
170 to 172 °C

$$$$
>  <compound>
COc1ccc(-c2cc(-c3ccc(-c4c(Cc5ccccc5)sc5ccccc45)cc3)cc(Br)c2OCC(=O)O)cc1OC

>  <melting point>
103 to 105 °C

$$$$
>  <compound>
CCCc1c(OCCC(C)Br)ccc(C(C)=O)c1O (centres undefined)

>  <melting point>
53 to 55 °C

$$$$
>  <compound>
CC(C)(C)OC(=O)N1CCC(O)(Cc2ccc3ccccc3n2)CC1

>  <melting point>
119 to 121 °C

$$$$

GET /value?item= CCOC(=O)C(C)Oc1ccc(-c2ccc(CCNC(=O)c3cc(Cl)ccc3OC)cc2)cc1 (centres undefined) &field=melting point returns < 20 °C

So, CS(=O)CCC(NS(=O)(=O)c1ccc2c(c1)Sc1ccccc1O2)C(=O)O (centres undefined) ? Its melting point was 160 to 170 °C

Measured melting point of COc1ccc(S(=O)(=O)Nc2cc(Cl)ccc2/C=C/c2ccncc2)cc1 : 190 to 193 °C

In plain terms, O=C1OC(Cc2ccc([N+](=O)[O-])cc2)C(=O)N1Cc1ccccc1 (centres undefined) has a documented melting point of 92 to 93 °C

====

As shown below, each of these compounds has a reported melting point value.

# annotated cases, reported melting point shown
>  <compound>
CCN1C(=O)C(C)(C)C(=O)N(C)c2cc(CN(CCn3ccc4oc(C)cc4c3=O)Cc3cncnc3)ccc21

>  <melting point>
146 to 148 °C

$$$$
>  <compound>
COc1ccccc1Sc1c(Cl)ncnc1NS(=O)(=O)c1ccc(C(C)(C)C)cc1

>  <melting point>
186 °C

$$$$

In plain terms, CSc1nn2c(N)cc(Cl)nc2c1S(=O)(=O)c1ccccc1 has a documented melting point of > 230 °C

Short answer for CCCCC(COc1cccc(COc2cccc3cccnc23)c1)OC(C)=O (stereo not given) : melting point was 85 to 86 °C

====

The following molecules are shown together with reported melting point values.

>  <molecule>
CN1CCC(Sc2cc3c(cc2Cl)[nH]c(=O)n3C)CC1

>  <melting point>
210 to 212 °C

$$$$
>  <molecule>
CC(=O)c1nc(N)nc(N)c1-c1ccc(Cl)cc1

>  <melting point>
206 to 208 °C

$$$$

// ON=C1c2ccccc2CCC1c1ccccc1 (stereo not given) : melting point value = 156 to 157 °C

Quick note, melting point for O=C1CC(c2ccccc2)Nc2ccccc2N1Cc1ccccc1 (stereo not given) landed at 132 to 133 °C

The measured melting point associated with Cc1ccc(C(=S)c2cc(Cl)cc3c2NC(=O)C3)cc1 reads 179 to 181 °C

Form field melting point, entry FC(F)(F)c1ccc(-c2nc(Br)cc(Br)n2)cc1 : 87 °C

molecule CCOC(=O)c1ccc(NC(=O)OC(C)(C)C)cc1 , melting point observed: 149 to 150 °C

Entry CCC(=O)NC1=C(OCCOC)C(=O)c2ccccc2C1=O , melting point reported as 116 to 117 °C

Entry Cc1cccnc1C1CC(C)(C)Oc2ccccc21 (stereo not given) ; melting point = 100 to 102 °C

melting point reading for COc1cc(C(=O)N2CCN(C(=O)C3=Cc4cc(OCc5ccccc5)c(OCc5ccccc5)cc4CCC3)CC2)cc(OC)c1OC : 130 to 132 °C

====

parameter: melting point

# example entries with known answers
>  <compound>
COc1cc(C2C(=O)N(C)Cc3c2ccc(OC)c3OC(C)C)cc(OC)c1OC (stereo not given)

>  <melting point>
128 to 129 °C

$$$$
>  <compound>
CNC(=NC#N)NCCSCc1ccc(CN(C)C)o1

>  <melting point>
79 to 81.5 °C

$$$$

For record CC(C)(C)OC(=O)n1nnc(-c2ccccc2)c1I the listed melting point is 87 to 90 °C

# melting point (compound: CCCc1c[nH]c(CCC(=O)N(C)C)c1 ) is 71 to 72 °C

get_value(item= CCOC(=O)c1[nH]c(C)c(C(C)CC)c1C (stereo not given) , readout=melting point) returns 102 to 104 °C

Sample CCCN1CC(c2ccc(F)cc2)=C(c2ccc(S(N)(=O)=O)cc2)C1=O ; melting point observed: 180 to 181 °C

According to the records, this compound CC1=C(C(=O)OCCCO[N+](=O)[O-])C(c2cccc([N+](=O)[O-])c2)C(C(=O)OCCCO[N+](=O)[O-])=C(N)N1 (stereo not given) displays melting point of 145 to 146 °C

Form: compound = COc1nc(C(F)(F)F)c(F)c(=O)n1-c1cc(OC(C)C)c(Cl)cc1F ; melting point = 144 to 146 °C

melting point reported for this compound COc1ccc(-c2cnc3ccc(-c4nnc(SCc5cccc(C#N)c5)o4)cn23)cc1 : 143 to 144 °C

# compound O=C(Cc1cccc2ccccc12)N[C@H]1C[C@H](C(=O)O)Nc2cc(Cl)cc(Cl)c21 (relative stereo) ; its melting point = 257 to 258 °C

Reported melting point ( CN1C(=O)CC[C@]2(C)c3ccc(-c4c(F)cccc4F)cc3CC[C@@H]12 ) = 125 to 130 °C

The measured melting point associated with C=CCN(C)CCCCCCOc1ccc2c(-c3ccc(Br)cc3)cc(C)nc2c1 reads 88 to 93 °C

The compound CCOC(=O)C1=C(C)NC(C=O)=C(C(=O)OCC)C1c1ccccc1[N+](=O)[O-] (stereo not given) showed melting point equal to 101 to 103 °C

Documented melting point of Cc1cccc(-c2n[nH]cc2-c2ccc(F)c(-c3csc(CO)n3)c2)n1 : 89 to 92 °C

// melting point lookup, compound = OCc1ccccc1-c1noc2ccccc12 , result: 55 °C

Looking up CON=Cc1ccc2c(c1)ncn2-c1cccc(-c2nccs2)c1 , I found its melting point recorded as 154 to 160 °C

Lab note: CCCc1nn(C)c2c(=O)n(CCOc3ccc(NC(C)=O)cc3)c(CC)nc12 gave melting point of 100 to 104 °C

In plain terms, CNC(=O)/C(=N/OC)c1ccccc1COc1ccccc1C has a documented melting point of 109 to 112 °C

// field: melting point; key: CC(C)C[C@H](NC(=O)OCc1ccccc1)C(=O)N[C@@H](Cc1ccccc1)C(=O)CSCCCl ; value = 77 to 80 °C

So, Cn1ccnc1-c1ccccc1Nc1nc(Nc2ccc3c(c2)CCC(=O)CC3)ncc1Cl ? Its melting point was 149 °C
